protocol.description: Pharmacokinetic study, plasma and brain levels by LC-MS/MS
Assay type: in vivo
protocol.conditions: both sexes, C57BL6, mouse; Plasma; intravenous 10 mg/kg, mice; read-out: AUC0-48
readout.type: AUC(0-t) (ng·h/mL)

COc1ccc2nc(N[C@@H](c3ccc(O)cc3)P(=O)(OC)OC)sc2c1 (racemic) [Compound 8]: 2860
COc1ccc2nc(N[C@@H](c3ccc(F)cc3)P(=O)(OC)OC)sc2c1 [Compound 15]: 2980
COC(=O)c1cc([C@H](Nc2nc3ccc(OC)cc3s2)P(=O)(OC)OC)ccc1O [Compound 4]: 3030

====

protocol.description: Pharmacokinetic study, plasma and brain levels by LC-MS/MS
Assay type: in vivo
protocol.conditions: both sexes, C57BL6, mouse; Plasma; intravenous 10 mg/kg, mice
readout.type: half-life (h)

COc1ccc2nc(N[C@@H](c3ccc(F)cc3)P(=O)(OC)OC)sc2c1: 6.1
COC(=O)c1cc([C@H](Nc2nc3ccc(OC)cc3s2)P(=O)(OC)OC)ccc1O: 6.2
COc1ccc2nc(N[C@@H](c3ccc(O)cc3)P(=O)(OC)OC)sc2c1 (racemic): 5.5
